molecular target: α4β1 integrin (Homo sapiens, UniProt P05556+P13612); construct: endogenous in cells; host or cells: Ramos cells; assay: Adhesion of calcein-labeled Ramos cells to CS1 (fibronectin) peptide conjugated ovalbumin; type: cell-based; settings: Table 4; Ramos cell adhesion to CS1 conjugated ovalbumin, 30 minutes at 37° C.
Sequence (P13612 34-1032): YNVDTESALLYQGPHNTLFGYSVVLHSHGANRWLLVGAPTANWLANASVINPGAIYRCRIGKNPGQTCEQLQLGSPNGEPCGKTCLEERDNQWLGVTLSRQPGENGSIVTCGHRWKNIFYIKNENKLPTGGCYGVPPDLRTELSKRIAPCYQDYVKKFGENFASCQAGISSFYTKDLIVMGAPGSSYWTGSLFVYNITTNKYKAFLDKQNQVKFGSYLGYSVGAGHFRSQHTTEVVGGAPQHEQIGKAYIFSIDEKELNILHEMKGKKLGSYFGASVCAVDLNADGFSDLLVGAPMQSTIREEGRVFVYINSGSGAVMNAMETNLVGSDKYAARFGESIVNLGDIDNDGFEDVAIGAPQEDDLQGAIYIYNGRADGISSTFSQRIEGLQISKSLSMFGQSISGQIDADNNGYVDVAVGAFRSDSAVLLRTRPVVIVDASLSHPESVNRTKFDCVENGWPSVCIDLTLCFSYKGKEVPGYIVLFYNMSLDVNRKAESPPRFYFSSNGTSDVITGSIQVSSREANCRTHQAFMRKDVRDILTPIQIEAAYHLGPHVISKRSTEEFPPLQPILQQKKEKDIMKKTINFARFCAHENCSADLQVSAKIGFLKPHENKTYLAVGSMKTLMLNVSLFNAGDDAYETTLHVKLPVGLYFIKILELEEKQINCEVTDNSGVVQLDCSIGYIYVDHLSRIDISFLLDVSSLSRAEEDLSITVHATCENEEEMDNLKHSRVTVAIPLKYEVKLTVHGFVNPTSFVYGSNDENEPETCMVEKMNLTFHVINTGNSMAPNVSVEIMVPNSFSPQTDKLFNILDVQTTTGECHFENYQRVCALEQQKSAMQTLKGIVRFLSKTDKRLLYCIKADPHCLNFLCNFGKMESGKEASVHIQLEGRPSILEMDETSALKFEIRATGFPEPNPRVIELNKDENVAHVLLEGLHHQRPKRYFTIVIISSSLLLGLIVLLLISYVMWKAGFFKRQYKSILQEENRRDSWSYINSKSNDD
Sequence (P05556 21-798): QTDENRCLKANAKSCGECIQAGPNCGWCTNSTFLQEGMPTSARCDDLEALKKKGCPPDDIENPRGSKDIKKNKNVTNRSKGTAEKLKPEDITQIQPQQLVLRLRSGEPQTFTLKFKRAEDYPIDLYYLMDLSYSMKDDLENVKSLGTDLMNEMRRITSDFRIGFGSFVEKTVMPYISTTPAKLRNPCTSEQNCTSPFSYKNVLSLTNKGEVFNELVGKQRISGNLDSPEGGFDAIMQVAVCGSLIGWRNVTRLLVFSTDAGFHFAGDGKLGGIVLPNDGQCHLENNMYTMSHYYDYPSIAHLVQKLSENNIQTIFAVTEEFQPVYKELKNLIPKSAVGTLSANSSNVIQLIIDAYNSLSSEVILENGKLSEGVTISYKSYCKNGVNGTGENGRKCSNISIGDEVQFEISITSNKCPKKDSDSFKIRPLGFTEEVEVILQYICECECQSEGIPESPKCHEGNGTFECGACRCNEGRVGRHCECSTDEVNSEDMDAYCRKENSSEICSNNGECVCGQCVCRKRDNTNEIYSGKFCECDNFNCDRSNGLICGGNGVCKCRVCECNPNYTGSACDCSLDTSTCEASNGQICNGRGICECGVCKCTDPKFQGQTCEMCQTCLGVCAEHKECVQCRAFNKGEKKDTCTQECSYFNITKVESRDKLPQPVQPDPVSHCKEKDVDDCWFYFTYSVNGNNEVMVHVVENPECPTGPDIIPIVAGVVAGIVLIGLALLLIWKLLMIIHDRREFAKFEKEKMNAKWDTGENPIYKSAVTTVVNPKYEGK
pIC50: −log10 of the molar value.
measurementType: pIC50

[1] O=C(O)C[C@H](NC(=O)Nc1cccn(Cc2cccs2)c1=O)c1cccc(F)c1
[2] COc1ccccc1Cn1cccc(NC(=O)N[C@@H](CC(=O)O)c2ccc3c(c2)OCO3)c1=O
## Task For the two items 1 and 2 , which reports the higher pIC50 value? To answer, give the label that identifies your chosen option.
## Result 2
(2: 6.30, 1: 5.52)

[I] O=C(O)C[C@@H](NC(=O)Nc1cccn(Cc2ccccc2Cl)c1=O)c1ccc2c(c1)OCO2
[II] Cc1ccc(Cn2cccc(NC(=O)N[C@@H](CC(=O)O)c3ccc4c(c3)OCO4)c2=O)cc1
## Task For the two items I and II , which reports the higher pIC50 value? To answer, give the label that identifies your chosen option.
## Result II
(II: 6.00, I: 5.70)
